Assign pKd to each entry below.
Biological target: T1, PLCG1 C-terminal SH2 domain (human)
T1 construct: PLCG1, human; source: bacterial expression, purified
T1 sequence (P19174 whole entry, looked up): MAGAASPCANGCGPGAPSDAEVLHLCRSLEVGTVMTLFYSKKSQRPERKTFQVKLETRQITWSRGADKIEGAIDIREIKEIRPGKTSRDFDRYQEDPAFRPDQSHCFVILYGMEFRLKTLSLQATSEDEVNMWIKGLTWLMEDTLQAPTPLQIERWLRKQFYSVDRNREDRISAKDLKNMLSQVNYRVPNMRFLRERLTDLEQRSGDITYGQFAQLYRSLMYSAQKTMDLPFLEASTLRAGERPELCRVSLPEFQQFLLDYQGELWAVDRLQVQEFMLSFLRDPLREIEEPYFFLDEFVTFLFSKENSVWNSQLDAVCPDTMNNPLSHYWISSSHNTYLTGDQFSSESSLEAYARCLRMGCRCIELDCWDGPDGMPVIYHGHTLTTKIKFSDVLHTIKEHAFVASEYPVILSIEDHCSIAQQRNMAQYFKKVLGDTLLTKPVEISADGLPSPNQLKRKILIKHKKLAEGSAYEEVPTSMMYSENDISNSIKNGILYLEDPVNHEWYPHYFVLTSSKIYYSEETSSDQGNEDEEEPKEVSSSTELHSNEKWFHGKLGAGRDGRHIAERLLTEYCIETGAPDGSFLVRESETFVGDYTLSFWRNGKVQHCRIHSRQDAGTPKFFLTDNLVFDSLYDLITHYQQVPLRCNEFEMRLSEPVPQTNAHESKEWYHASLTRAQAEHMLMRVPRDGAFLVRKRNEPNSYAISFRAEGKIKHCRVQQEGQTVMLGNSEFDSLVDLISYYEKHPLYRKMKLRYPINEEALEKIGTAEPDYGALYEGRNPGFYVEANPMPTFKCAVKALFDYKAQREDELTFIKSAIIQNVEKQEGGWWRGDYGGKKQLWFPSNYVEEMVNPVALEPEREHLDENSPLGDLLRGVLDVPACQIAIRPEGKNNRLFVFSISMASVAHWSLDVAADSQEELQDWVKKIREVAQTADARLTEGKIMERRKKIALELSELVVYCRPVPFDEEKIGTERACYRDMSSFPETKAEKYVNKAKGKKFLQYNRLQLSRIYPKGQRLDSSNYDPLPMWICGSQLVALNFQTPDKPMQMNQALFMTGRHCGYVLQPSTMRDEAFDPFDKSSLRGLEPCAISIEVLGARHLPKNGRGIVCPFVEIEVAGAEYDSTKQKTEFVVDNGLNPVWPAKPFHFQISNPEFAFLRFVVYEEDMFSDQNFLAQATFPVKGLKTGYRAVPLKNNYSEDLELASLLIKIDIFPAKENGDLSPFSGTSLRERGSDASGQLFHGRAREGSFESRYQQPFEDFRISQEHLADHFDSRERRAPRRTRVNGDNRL
Assay: fluorescence polarisation; saturation binding in solution: rhodamine peptide fixed at 10 nM, protein titrated 0.002-10 uM, 20 min at room temperature; assay buffer 20 mM HEPES, 100 mM KCl, 0.1% Tween-20, 5 mM DTT, pH 7.8; apparent KD
Conditions: both partners purified
Non-standard residues stand in square brackets, D forms with d. No end group written: not given here. pY = N[C@@H](Cc1ccc(OP(=O)(O)O)cc1)C(=O)O; Rhodamine = not defined here
Hey, just a heads up that pKd is the negative log base 10 of the concentration in molar.

Provide one value: measured pKd of Rhodamine-NNYV[pY]IDPTQLPD (reading uncertain) [KIT pY570 phosphopeptide, rhodamine-labelled]
5.42

Provide one value: measured pKd of Rhodamine-DPQD[pY]LLLINCQD (reading uncertain) [Gab1 pY183 phosphopeptide, rhodamine-labelled]
5.69
